experiment: chemical genetic growth profiling, strain panel (AID 1159580);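 further: tested at 20 µM; growth read once vehicle control cultures reached saturation at 30 °C; lower values mean less growth of the strain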; conditions: S. cerevisiae deletion strains, growth OD, locus YPR135W, strain CTF4, active compounds read low
Screen size: about 5,500 compounds; about 2,000 (36%) were called active. Another 18% or so got no clear call; they are omitted. The list shows a part of the results.
Entries are sorted into classes by normalized growth as follows: lower bin (below 0.9), middle bin (0.9 to below 1), upper bin (1 or more)

Use the examples below as a reference point.
O=C1c2cccc3c([N+](=O)[O-])ccc(c23)C(=O)N1Cc1ccco1	lower bin
CCCS(=O)(=O)c1c(C)c(C)n(Cc2ccccc2)c1N	upper bin
COC(=O)/C(=C/N(C)C)Sc1cc(C)c(Cl)cc1Cl	lower bin
N#CCOc1ccc(Cl)cc1Cl	middle bin
COc1cc2c(cc1OC)CC(=O)OC2	upper bin

Request: Determine which band this compound sits in: Cc1cccc(Cn2c(C)c(C)c(S(=O)(=O)c3ccccc3)c2N)c1C
Response: upper bin

Request: Determine which band this compound sits in: CC(C)(C)c1ccc(-c2nc(-c3cc(C(C)(C)C)c(O)c(C(C)(C)C)c3)cs2)cc1
Response: upper bin

Request: Determine which band this compound sits in: CCOC(=O)C(=CNc1cccc(C#N)c1)C(=O)OCC
Response: upper bin

Request: Determine which band this compound sits in: CC(C)(C)C(=O)Nc1ccc(F)cc1
Response: middle bin

Request: Determine which band this compound sits in: CCOC(=O)COc1nc(-c2cccs2)cc(C(F)(F)F)c1C#N
Response: middle bin
